Molecular target: T1, IL-18Rα/β heterodimer (Fc fused human IL-18Rα mixed and pre-incubated with Fc fused human IL-18Rβ) (human, UniProt Q13478 19-329; O95256 20-356, limits assumed)
T1 construct: 6 µg/mL of each receptor mixed and pre-incubated 30 min before capture on anti-human IgG; also called alpha/beta heterodimer IL-18 receptor; not shown: Fc part
T1 sequence (looked up) 1: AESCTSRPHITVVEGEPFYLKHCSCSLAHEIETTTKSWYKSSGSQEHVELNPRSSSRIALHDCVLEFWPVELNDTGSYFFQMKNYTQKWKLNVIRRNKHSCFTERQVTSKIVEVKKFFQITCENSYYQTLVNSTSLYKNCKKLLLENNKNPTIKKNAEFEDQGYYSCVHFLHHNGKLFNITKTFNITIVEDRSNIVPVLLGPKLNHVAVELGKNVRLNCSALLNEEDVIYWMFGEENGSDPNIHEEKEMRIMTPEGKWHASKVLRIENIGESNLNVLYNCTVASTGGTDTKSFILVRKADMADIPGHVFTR
T1 sequence (looked up) 2: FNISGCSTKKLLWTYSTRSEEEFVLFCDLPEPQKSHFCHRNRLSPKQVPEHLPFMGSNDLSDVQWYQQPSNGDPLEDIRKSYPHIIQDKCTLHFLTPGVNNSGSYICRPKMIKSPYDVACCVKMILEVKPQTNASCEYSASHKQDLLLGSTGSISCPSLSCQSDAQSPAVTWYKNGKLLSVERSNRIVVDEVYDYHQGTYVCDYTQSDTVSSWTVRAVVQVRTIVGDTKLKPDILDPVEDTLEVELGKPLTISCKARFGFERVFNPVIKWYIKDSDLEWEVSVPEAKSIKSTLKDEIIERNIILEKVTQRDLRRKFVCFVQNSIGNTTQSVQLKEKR
Assay: SPR, Fc-IL-18Rα/Fc-IL-18Rβ mix captured, heterogeneous ligand model
Each item that follows carries a reported Kd.

Study these solved cases before continuing.
Modified IL-18 polypeptide of SEQ ID NO: 70 (E6K, K53A, C38S, C76S, C127S) (ligand) YFGKLKSKLSVIRNLNDQVLFIDQGNRPLFEDMTDSDSRDNAPRTIFIISMYADSQPRGMAVTISVKCEKISTLSSENKIISFKEMNPPDNIKDTKSDIIFFQRSVPGHDNKMQFESSSYEGYFLASEKERDLFKLILKKEDELGDRSIMFTVQNED ... 13.2 nM
Modified IL-18 polypeptide of SEQ ID NO: 12 (E06K, K53A, S55A, F02A) (ligand) YAGKLKSKLSVIRNLNDQVLFIDQGNRPLFEDMTDSDCRDNAPRTIFIISMYADAQPRGMAVTISVKCEKISTLSCENKIISFKEMNPPDNIKDTKSDIIFFQRSVPGHDNKMQFESSSYEGYFLACEKERDLFKLILKKEDELGDRSIMFTVQNED ... > 1000 nM

The record that follows has no Kd shown yet.
Notebook: Modified IL-18 polypeptide of SEQ ID NO: 23 (K53A, T63A, C38S, C68S, C76S, C127S, K70C) (ligand) YFGKLESKLSVIRNLNDQVLFIDQGNRPLFEDMTDSDSRDNAPRTIFIISMYADSQPRGMAVAISVKSECISTLSSENKIISFKEMNPPDNIKDTKSDIIFFQRSVPGHDNKMQFESSSYEGYFLASEKERDLFKLILKKEDELGDRSIMFTVQNED , Kd read as > 1000 nM
